- Test system: 855422-203-R-J1-PDC complex spheroid viability
- Assay explanation: Anticancer human tumor 855422-203-R-J1-PDC patient-derived bladder carcinoma cell line growth inhibition; active means viability on the fitted dose curve at most 10% of control; inactive means the rest
- Stated conditions: second compound 0.316 µM; first compound 0.1 µM
Your answer must be one of the following: yes = active, no = inactive

# example entries with known answers
Nc1ncn(C2CC(O)C(CO)O2)c(=O)n1 (centres undefined) + NC1CC1c1ccc(-c2cccc(O)c2)cc1 | no
O=C(C=Cn1cnc(-c2cc(C(F)(F)F)cc(C(F)(F)F)c2)n1)NNc1cnccn1 + NC1CC1c1ccc(-c2cccc(O)c2)cc1 | no
CC(C)c1c(-c2ccccc2)nc2c(C#N)c[nH]n2c1=O + NC1CCC(NC2CC2c2ccccc2)CC1 | no
CC(C)CC(NC(=O)C(Cc1ccccc1)NC(=O)c1cnccn1)B(O)O (centres undefined) + NC1CC1c1ccc(-c2cccc(O)c2)cc1 | yes
CC1COCCN1c1cc(C2(S(C)(=N)=O)CC2)nc(-c2ccnc3[nH]ccc23)n1 (centres undefined) + NC1CCC(NC2CC2c2ccccc2)CC1 | no

(Q) Assay result, entry Cn1ncnc1C1c2n[nH]c(=O)c3cc(F)cc(c23)NC1c1ccc(F)cc1 (centres undefined) + NC1CC1c1ccc(-c2cccc(O)c2)cc1 — outcome?
(A) no

(Q) Assay result, entry CC(C)CC(NC(=O)C(Cc1ccccc1)NC(=O)c1cnccn1)B(O)O (centres undefined) + NC1CCC(NC2CC2c2ccccc2)CC1 — outcome?
(A) yes

(Q) Assay result, entry COc1ccc([C@@H](O)c2cc(-c3ncnc4cc(N5CCOCC5)ccc34)c(F)cc2Cl)nn1 + NC1CC1c1ccc(-c2cccc(O)c2)cc1 — outcome?
(A) no

(Q) Assay result, entry COc1ccc([C@@H](O)c2cc(-c3ncnc4cc(N5CCOCC5)ccc34)c(F)cc2Cl)nn1 + NC1CCC(NC2CC2c2ccccc2)CC1 — outcome?
(A) no

---

- Test system: 855422-203-R-J1-PDC complex spheroid viability
- Assay explanation: Anticancer human tumor 855422-203-R-J1-PDC cell line growth inhibition;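 further: drug exposure lasted 7 days starting on day 3 after seeding; luminescence viability as percent of DMSO vehicle wells = 100%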
- Stated conditions: second compound 3.16 µM; first compound 0.3 µM; active compounds read low
- From the text: Multicellular complex tumor spheroid response to LSD1 Inhibitor Iadademstat in combination with a variety of drugs and investigational agents in selected tumor cell lines The current study was undertaken to assess response to LSD1 inhibitors in combination with standard-of-care drugs and investigational agents in solid tumor complex spheroid models as well as in the K-562 leukemia. […] Compounds. […] If the clinical Cmax for an agent had not been determined, the highest concentration tested was 10 microM. […]
I'd be grateful if you could share measured viability, T/C for these entries.
Numbers only, in %.

Example molecules with recorded viability, T/C:
NS(=O)(=O)OCC1CC(n2ccc3c(NC4CCc5ccccc54)ncnc32)CC1O (centres undefined) + NC1CCC(NC2CC2c2ccccc2)CC1 | 74.5
Nc1ccccc1NC(=O)c1ccc(CNC(=O)OCc2cccnc2)cc1 + NC1CCC(NC2CC2c2ccccc2)CC1 | 85.5
CCN(c1cc(-c2ccc(CN3CCOCC3)cc2)cc(C(=O)NCc2c(C)cc(C)[nH]c2=O)c1C)C1CCOCC1 + NC1CC1c1ccc(-c2cccc(O)c2)cc1 | 103
Nc1ccn(C2OC(CO)C(O)C2(F)F)c(=O)n1 (centres undefined) + NC1CCC(NC2CC2c2ccccc2)CC1 | 24.7
O=C(C=Cc1cccc(S(=O)(=O)Nc2ccccc2)c1)NO + NC1CC1c1ccc(-c2cccc(O)c2)cc1 | 69.8
Nc1ncn(C2CC(O)C(CO)S2)c(=O)n1 (centres undefined) + NC1CC1c1ccc(-c2cccc(O)c2)cc1 | 73.4
NS(=O)(=O)OCC1CC(n2ccc3c(NC4CCc5ccccc54)ncnc32)CC1O (centres undefined) + NC1CC1c1ccc(-c2cccc(O)c2)cc1 | 105
COc1cc(C2c3cc4c(cc3C(OC3OC5COC(C)OC5C(O)C3O)C3COC(=O)C23)OCO4)cc(OC)c1O (centres undefined) + NC1CC1c1ccc(-c2cccc(O)c2)cc1 | 27.9

Continue with the next molecule.
Entry O=C(C=Cc1cccc(S(=O)(=O)Nc2ccccc2)c1)NO + NC1CCC(NC2CC2c2ccccc2)CC1 ; assay system 855422-203-R-J1-PDC complex spheroid viability; viability, T/C recorded at 57.4

This collection of values is drawn from PubChem BioAssay AID1918943.
